Target: T1, Biotin-huCGRPaSA (human, not fully specified; biotin (position not given))
T1 construct: exact construct ('aSA') not explained; also called Biotin CGRPaSA; full-length (1-37) CGRP
T1 peptide: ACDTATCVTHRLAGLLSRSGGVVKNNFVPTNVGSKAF
Assay: ELISA, supernatant; relative to chimeric C245
Respond with criterion met for Relative binding activity, % values of 50% and above, criterion not met for values below.

BINDER	QUALITATIVE LABEL
hu57 (antibody, V domains shown, 1F5 HC-3/1F5 LC1-1) VH: QVQLVQSGAEVKKPGASVKVSCKASGYTFTDFNMHWVRQAPGQGLEWMGYIYPYNGDVVYNQNFTNRVTLTVDTSSSTAYMELRSLRSDDTAVYYCAREGLGGYWGQGTLVTVSS VL: EIVLTQSPATLSLSPGERATLSCKASQNIDFDGYAYMNWYQQKPGQAPRVLIYSVFNLESGIPARFSGSGSGTDFTLTISSLEPEDFAVYYCQQSHEVPYTFGQGTKLEIK	criterion met
hu15 (antibody, V domains shown, 1B2 HC-2/1A2 LC2-2) VH: QVQLVQSGAEVKKPGASVKVSCKASGYTFTDYNMHWVRQAPGQRLEWMGYIFPYNGVAVYNRKFRSRVTLTVDTSSSTAYMELSSLRSEDTAVYYCAREGLGGYWGQGTLVTVSS VL: DIVLTQSPASLAVSPGQRATITCKASQNIDYDGYAYLNWYQQKPGQPPKVLIYSVFNLESGVPARFSGSGSGTDFTLTINPVEADDTANYYCQQSNEFPYTFGQGTKLEIK	criterion not met
hu102 (antibody, V domains shown, 2A2 HC-1/3E5 LC-1) VH: QVQLVQSGAEVKKPGASVKVSCKASGYTFTDYNMHWVRQAPGQRLEWMGYVYPYNGGSAYNQKFKSRVTLTVDTSSSTAYMELSSLRSEDTAVYYCAREGLGGYWGQGTLVTVSS VL: DIVLTQSPDSLAVSLGERATINCKASQNIDYDGYTYLNWYQQKPGQPPKVLIYSIFNLESGVPDRFSGSGSGTDFTLTISSLQAEDVAVYYCQQSNEVPYTFGQGTKLEIK	criterion met
